Data provenance is paper PMC6353801.

- procedure text: Transport in Caco-2 cells
- Assay type: in vitro ADME, human
- condition parameters: human; Caco-2, BBR 10 μM in presence of TB-2 (5 μM); n = 3
assay readout: Papp A→B at 10 μM (nm/s)

1. COc1ccc2cc3[n+](cc2c1OC)CCc1cc2c(cc1-3)OCO2 : 0.48

###

- procedure text: Transport in Caco-2 cells
- Type: in vitro ADME, human
- condition parameters: human; Caco-2, BBR 10 μM in presence of TB-2 (5 μM); n = 3
assay readout: Papp B→A at 10 μM (×10⁻⁶ cm/s)

1) COc1ccc2cc3[n+](cc2c1OC)CCc1cc2c(cc1-3)OCO2 [BBR, berberine] : 1.5
